molecular target: recombinant human ROR1 extracellular domain with a C-terminal 6xHis tag (human) (UniProt Q01973); experiment: SPR (Biacore), scFv-mFc captured on an anti-mouse IgG chip, ROR1 ECD 6xHis injected at 183, 61.0, 20.33, 6.78 and 2.26 nM, multi-cycle kinetics, 1:1 Binding model, 25 °C
Sequence (Q01973 other isoform, or with tags, fused parts or gaps): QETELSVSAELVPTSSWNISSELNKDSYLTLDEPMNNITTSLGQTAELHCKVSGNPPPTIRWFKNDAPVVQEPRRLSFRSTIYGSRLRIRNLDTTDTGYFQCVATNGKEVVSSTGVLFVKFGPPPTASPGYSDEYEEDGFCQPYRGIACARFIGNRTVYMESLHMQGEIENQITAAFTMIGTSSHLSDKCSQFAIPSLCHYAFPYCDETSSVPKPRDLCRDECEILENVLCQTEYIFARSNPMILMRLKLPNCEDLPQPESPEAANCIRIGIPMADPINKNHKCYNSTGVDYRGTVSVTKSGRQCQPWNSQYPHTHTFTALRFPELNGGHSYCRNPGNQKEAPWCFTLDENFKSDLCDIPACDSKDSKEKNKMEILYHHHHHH
readout-kind: kon (M⁻¹ s⁻¹)
Express it in M⁻¹ s⁻¹; write the number only.

binder	result-unit	kon
anti-ROR1 scFv ROR1-4 fused to murine IgG2a Fc (scFv-mFc) (Fc fusion, part only; not given: murine IgG2a Fc and junction, not shown: another chain or arm of the molecule; a dimerising Fc or GST) scFv: QVQLLQSGAEVKKPGASVKVSCKASGYTFTSYGISWVRQAPGQGLEWMGWISAYTGNTRYAQKLQGRVTMTTDTSTSTAYMELRSLRSDDTAVYYCAREEGATTDYDYYGMDVWGQGTAVTVSSGGGGSGGGGSGGGGSQLVLTQSPSASASLGASVKLTCTLSSGHSSYAIAWHQQQPEKGPRYLMKLNSDGSHSKGDGIPDRFSGSSSGAERYLTISSLQSEDEADYYCQTWGTGIRVFGGGTKLTVLG	M⁻¹ s⁻¹	16000
anti-ROR1 scFv ROR1-3 fused to murine IgG2a Fc (scFv-mFc) (Fc fusion, part only; not given: murine IgG2a Fc and junction, not shown: another chain or arm of the molecule; a dimerising Fc or GST) scFv: QVQLVQSGAEVKKPGASVKVSCKASGYTFTSYGISWVRQAPGQGLEWMGWISAYNGNTKYAQKLQGRVTMTTDTSTSTAYMELRSLRSDDTAVYYCARDEDILTGYNYYGMDVWGQGTTVTVSSGGGGSGGGGSGGGGSQLVLTQSPSASASLGASVKLTCTLSSGHSSYAIAWHQQQPEKGPRYLMKLNSDGSHSKGDGIPDRFSGSSSGAERYLTISSLQSEDEADYYCQTWGTGIRVFGGGTKLTVLG	M⁻¹ s⁻¹	11700
anti-ROR1 scFv ROR1-2 fused to murine IgG2a Fc (scFv-mFc) (Fc fusion, part only; not given: murine IgG2a Fc and junction, not shown: another chain or arm of the molecule; a dimerising Fc or GST) scFv: QLQLQESGPGLVKPSETLSLTCTVSGGSINSTTSYWAWIRQPPGKGLEWIGTIFYSGKTYNNPSLKSRVTMSVDTSKNHFSLKVNSVTAADTAVYYCARFDYGFHDAFDIWGQGTMVTVSSGGGGSGGGGSGGGGSEIVMTQSPATLSLSPGERATLSCRASQSITSDYLSWYQQKPGQAPRLLIYGASTRATGIPARFSGSGSGTDFTLTISSLQPEDFVVYYCQQDYNLYTFGQGTKLEIKR	M⁻¹ s⁻¹	412000

Please turn your attention to the following entry.
Problem: // lookup kon for anti-ROR1 scFv ROR1-1 fused to murine IgG2a Fc (scFv-mFc) (Fc fusion, part only; not given: murine IgG2a Fc and junction, not shown: another chain or arm of the molecule; a dimerising Fc or GST) scFv: QVQLQESGPGLVKPSETLSLTCTVSGGSISNYYWSWIRQPAGKGLEWIGRIYTSGSTNYNPSLKSRVTMSVDTSKNQFSLKLSSLTAADTAIYYCARYYDILTGFFDYWGQGTLVTVSSGGGGSGGGGSGGGGSVIWMTQSPSLLSASTGDSVTISCRMSQDISSYLAWYQQKPGKAPELLIYAASSLQSGVPSRFSGSGSGTDFTLTISSLQSEDFATYYCQQYDSFPPTFGQGTKVEFKR
Solution: 119000
